# TEST_TARGET: T1, human GIP receptor (human) (UniProt P48546)
# T1 sequence (looked up): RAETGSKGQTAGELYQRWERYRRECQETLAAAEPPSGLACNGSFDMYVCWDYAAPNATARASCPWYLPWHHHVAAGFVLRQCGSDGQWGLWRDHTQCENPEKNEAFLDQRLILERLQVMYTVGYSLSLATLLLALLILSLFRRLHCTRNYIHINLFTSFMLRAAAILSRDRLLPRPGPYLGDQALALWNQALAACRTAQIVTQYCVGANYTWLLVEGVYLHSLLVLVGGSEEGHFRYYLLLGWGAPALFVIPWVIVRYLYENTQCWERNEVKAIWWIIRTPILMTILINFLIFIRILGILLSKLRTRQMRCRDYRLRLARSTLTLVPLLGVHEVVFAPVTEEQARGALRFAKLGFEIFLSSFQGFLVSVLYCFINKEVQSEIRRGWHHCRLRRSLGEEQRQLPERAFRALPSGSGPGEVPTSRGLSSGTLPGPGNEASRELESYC
# METHOD: cell-based or functional assay
READOUT: cAMP EC50

binder="IP329 (Fc fusion) YSEGTFTSDYSKLLERQAIDEFIAELLKGGGGGGGSGGGGSGGGGSGGGGSGGGGSGGGGSA" recorded_result="0.011 nM"
binder="IP338 (Fc fusion) YSEGTFISDYSIAMDKIHQQDFVNWLLAQKGGGGGSGGGGSGGGGSGGGGSGGGGSGGGGSGGGGSGGGGSAN" recorded_result="0.0052 nM"
binder="IP359 (Fc fusion) YSEGTFTSDYSKLLEEEAVRLFIEHLLAGGGGGGSGGGGSGGGGSGGGGSATHTCPPC" recorded_result="0.011 nM"
